Species on record: Homo sapiens
assay-explanation: Liver toxicity in human assessed as induction of drug-induced liver injury by measuring verified drug-induced liver injury concern status
Starred links: 1 amine or outer side, 2 acyl side, 3 side chain; linkers in the order of their positions; H or OH if unused. Positions of bridges follow the written chain, without caps; N, C: chain ends. Non-standard residues stand in square brackets, D forms with d. Residues, ends and D or L forms follow the SMILES beside them. Chains are numbered I, II in the order given. Actinocin(9to1) = Cc1c2oc3c(C)ccc(C(=O)[*:1])c3nc-2c(C(=O)[*:2])c(N)c1=O; NMeV = CN[C@H](C(=O)O)C(C)C; Sar = CNCC(=O)O
quantity-kind: DILI_Concern

Example cases with answers are listed next.
compound	DILI_Concern
Cc1c(OCC(F)(F)F)ccnc1C[S+]([O-])c1nc2ccccc2[nH]1 (configuration not stated) [LANSOPRAZOLE]	Less-Dili-Concern
NCCCC(O)(P(=O)(O)O)P(=O)(O)O [ALENDRONIC ACID]	Less-Dili-Concern
Cc1c2oc3c(C)ccc(C(=O)N[C@@H]4C(=O)N[C@H](C(C)C)C(=O)N5CCC[C@H]5C(=O)N(C)CC(=O)N(C)[C@@H](C(C)C)C(=O)O[C@@H]4C)c3nc-2c(C(=O)N[C@@H]2C(=O)N[C@H](C(C)C)C(=O)N3CCC[C@H]3C(=O)N(C)CC(=O)N(C)[C@@H](C(C)C)C(=O)O[C@@H]2C)c(N)c1=O [DACTINOMYCIN] (I: T[dV]P[Sar][NMeV] / II: T[dV]P[Sar][NMeV]; ester I:1-I:C, II:1-II:C; linker I:N-II:N via Actinocin(9to1))	Most-Dili-Concern
O=C(O)CCCCCCNC1c2ccccc2CCc2ccccc21 [AMINEPTINE]	Most-Dili-Concern

Kindly consider the entry below.
Field DILI_Concern (entry NNc1nncc2ccccc12 [HYDRALAZINE] ) reads Less-Dili-Concern

###

Organism: Homo sapiens
assay-explanation: Liver toxicity in human assessed as induction of drug-induced liver injury by measuring verified drug-induced liver injury concern status
quantity-kind: DILI_Concern

compound	quantity-kind	observed-value
CC1(C)S[C@@H]2[C@H](NC(=O)[C@H](N)c3ccc(O)cc3)C(=O)N2[C@H]1C(=O)O	DILI_Concern	Less-Dili-Concern
CNCCC=C1c2ccccc2CCc2ccccc21	DILI_Concern	Most-Dili-Concern
N[C@@H](CC(=O)N1CCn2c(nnc2C(F)(F)F)C1)Cc1cc(F)c(F)cc1F	DILI_Concern	Less-Dili-Concern
C[C@@H](NCCCc1cccc(C(F)(F)F)c1)c1cccc2ccccc12	DILI_Concern	No-Dili-Concern
C[C@@H](O)[C@H]1C(=O)N2C(C(=O)O)=C(S[C@@H]3CN[C@H](C(=O)N(C)C)C3)[C@H](C)[C@H]12	DILI_Concern	Less-Dili-Concern

Field DILI_Concern (entry CCC[C@@H]1C[C@@H](C(=O)N[C@@H]([C@H]2O[C@H](SC)[C@H](OP(=O)(O)O)[C@@H](O)[C@H]2O)[C@H](C)Cl)N(C)C1 [CLINDAMYCIN PHOSPHATE] ) reads Ambiguous-Dili-Concern

Field DILI_Concern (entry O=S(=O)(O)O[C@@H]1[C@@H](OS(=O)(=O)O)[C@H](O[C@@H]2CO[C@@H](O)[C@H](OS(=O)(=O)O)[C@H]2OS(=O)(=O)O)OC[C@H]1O ) reads Ambiguous-Dili-Concern

Field DILI_Concern (entry CC(=O)CC(c1ccccc1)c1c(O)c2ccccc2oc1=O (configuration not stated) ) reads Less-Dili-Concern

Field DILI_Concern (entry OCCN1CCN(CCCN2c3ccccc3Sc3ccc(C(F)(F)F)cc32)CC1 ) reads Ambiguous-Dili-Concern

Field DILI_Concern (entry CCCCCCCCCCC[C@@H](C[C@@H]1OC(=O)[C@H]1CCCCCC)OC(=O)[C@H](CC(C)C)NC=O ) reads Most-Dili-Concern

Field DILI_Concern (entry CC[N+](C)(C)c1cccc(O)c1 ) reads No-Dili-Concern

Field DILI_Concern (entry CC(C)(C)NC[C@H](O)COc1ccccc1C1CCCC1 ) reads No-Dili-Concern

Field DILI_Concern (entry CN(C)CCCC1(c2ccc(F)cc2)OCc2cc(C#N)ccc21 (configuration not stated) ) reads Less-Dili-Concern

Field DILI_Concern (entry CCC1(c2ccccc2)C(=O)NCNC1=O ) reads No-Dili-Concern

Field DILI_Concern (entry O=C1CCc2ccc(OCCCCN3CCN(c4cccc(Cl)c4Cl)CC3)cc2N1 ) reads Ambiguous-Dili-Concern

Field DILI_Concern (entry Cc1ccc(C(=O)c2ccc(CC(=O)O)n2C)cc1 ) reads Less-Dili-Concern

Field DILI_Concern (entry COC(=O)[C@H](c1ccccc1)[C@H]1CCCCN1 [DEXMETHYLPHENIDATE] ) reads Less-Dili-Concern

###

Organism: Homo sapiens
assay-explanation: Liver toxicity in human assessed as induction of drug-induced liver injury by measuring verified drug-induced liver injury concern status
quantity-kind: DILI_Concern

smiles-record	observed-value
CO[C@H]1/C=C/O[C@@]2(C)Oc3c(C)c(O)c4c(O)c(c(/C=N/N5CCN(C)CC5)c(O)c4c3C2=O)NC(=O)/C(C)=C\C=C\[C@H](C)[C@H](O)[C@@H](C)[C@@H](O)[C@@H](C)[C@H](OC(C)=O)[C@@H]1C	Most-Dili-Concern
COc1ccc([C@@H]2Sc3ccccc3N(CCN(C)C)C(=O)[C@@H]2OC(C)=O)cc1	Most-Dili-Concern

###

Species on record: Homo sapiens
assay-explanation: Liver toxicity in human assessed as induction of drug-induced liver injury by measuring verified drug-induced liver injury concern status
Non-standard residues stand in square brackets, D forms with d. Residues, ends and D or L forms follow the SMILES beside them. dPhe(4-Cl) = N[C@H](Cc1ccc(Cl)cc1)C(=O)O; d2Nal = N[C@H](Cc1ccc2ccccc2c1)C(=O)O; dCit = NC(=O)NCCC[C@@H](N)C(=O)O; d3Pal = N[C@H](Cc1cccnc1)C(=O)O
quantity-kind: DILI_Concern

Example cases with answers are listed next.
compound	DILI_Concern
Cn1c(=O)c2c(ncn2C)n(C)c1=O	No-Dili-Concern
CCOC(=O)[C@H](CCc1ccccc1)N[C@H]1CCc2ccccc2N(CC(=O)O)C1=O	Less-Dili-Concern
CNCC[C@H](Oc1cccc2ccccc12)c1cccs1	Most-Dili-Concern
CNC1=Nc2ccc(Cl)cc2C(c2ccccc2)=[N+]([O-])C1 [CHLORDIAZEPOXIDE]	Less-Dili-Concern
Oc1ncnc2[nH]ncc12	Most-Dili-Concern
CC(=O)O[C@H]1C[C@@H]2CC[C@@H]3[C@H](CC[C@@]4(C)[C@H]3C[C@H]([N+]3(C)CCCCC3)[C@@H]4OC(C)=O)[C@@]2(C)C[C@@H]1[N+]1(C)CCCCC1	No-Dili-Concern
Fc1ccccc1C1=NCC(=S)N(CC(F)(F)F)c2ccc(Cl)cc21	No-Dili-Concern
COc1ccc2cc(CCC(C)=O)ccc2c1	Ambiguous-Dili-Concern

Field DILI_Concern (entry CC(=O)N[C@H](Cc1ccc2ccccc2c1)C(=O)N[C@H](Cc1ccc(Cl)cc1)C(=O)N[C@H](Cc1cccnc1)C(=O)N[C@@H](CO)C(=O)N[C@@H](Cc1ccc(O)cc1)C(=O)N[C@H](CCCNC(N)=O)C(=O)N[C@@H](CC(C)C)C(=O)N[C@@H](CCCNC(=N)N)C(=O)N1CCC[C@H]1C(=O)N[C@H](C)C(N)=O [CETRORELIX] (Ac-[d2Nal][dPhe(4-Cl)][d3Pal]SY[dCit]LRP[dA]-NH2) ) reads Ambiguous-Dili-Concern

Field DILI_Concern (entry CC(=O)Oc1ccccc1C(=O)Nc1ncc([N+](=O)[O-])s1 [NITAZOXANIDE] ) reads No-Dili-Concern

###

Organism: Homo sapiens
assay-explanation: Liver toxicity in human assessed as induction of drug-induced liver injury by measuring verified drug-induced liver injury concern status
Positions of bridges follow the written chain, without caps; N, C: chain ends. Non-standard residues stand in square brackets, D forms with d. Residues, ends and D or L forms follow the SMILES beside them. *: point of attachment. Ileψ(thiazoline)Cys = CC[C@H](C)[C@H](N)C1=N[C@H](C(=O)*)CS1; dOrn = NCCC[C@@H](N)C(=O)O
quantity-kind: DILI_Concern

compound	DILI_Concern
Cc1c(C)c2c(c(C)c1O)CCC(C)(COc1ccc(CC3SC(=O)NC3=O)cc1)O2 (stereo not drawn)	Most-Dili-Concern
CCCCN1C[C@H](O)[C@@H](O)[C@H](O)[C@H]1CO	No-Dili-Concern
Cn1c(=O)c2[nH]cnc2n(C)c1=O.O	No-Dili-Concern
Cc1c(O)cccc1C(=O)N[C@@H](CSc1ccccc1)[C@H](O)CN1C[C@H]2CCCC[C@H]2C[C@H]1C(=O)NC(C)(C)C	Less-Dili-Concern

Field DILI_Concern (entry CC[C@H](C)[C@H](N)C1=N[C@H](C(=O)N[C@@H](CC(C)C)C(=O)N[C@H](CCC(=O)O)C(=O)N[C@H](C(=O)N[C@H]2CCCCNC(=O)[C@H](CC(N)=O)NC(=O)[C@@H](CC(=O)O)NC(=O)[C@H](Cc3cnc[nH]3)NC(=O)[C@@H](Cc3ccccc3)NC(=O)[C@H]([C@@H](C)CC)NC(=O)[C@@H](CCCN)NC2=O)[C@@H](C)CC)CS1 [BACITRACIN] ({Ileψ(thiazoline)Cys}-L[dE]IK[dOrn]I[dF]H[dD]N; lactam 4-C) ) reads No-Dili-Concern
